# Test system: D deficient rat
# Run Description: In vivo calcemic activity: serum calcium / bone calcium mobilization (atomic absorption spectroscopy)
# Measurement Setup: TABLE 2; 250 pmol/d/7 days, intraperitoneal; mean ± SEM, 5 rats
# Experimental: In vivo Calcemic Activity These studies were carried out with five to six rats per group. Male weanling rats were fed a vitamin D-deficient diet for one week and then shifted to the same diet but with calcium removed for three weeks. […] Twenty-four hours after the last dose all animals were killed by decapitation and serum calcium was measured by atomic absorption spectroscopy in the presence of 1.0% lanthanium chloride. […]
Measured Property: SERUM CALCIUM (mg/100 ml)
The figure you give is taken to be in mg/100 ml; do not add the unit.

// below: answered compounds
C[C@H](CCCC(C)(C)O)[C@H]1CC[C@@H]2/C(=C/C=C3C[C@@H](O)C[C@H](O)C3)CCC[C@@]21C [[27], 14-epi-19-nor-1α,25-dihydroxyvitamin D3] : 3.6
C[C@H](CCCC(C)(C)O)[C@H]1CC[C@H]2/C(=C/C=C3C[C@@H](O)C[C@H](O)C3)CCC[C@]12C [19-nor-1,25(OH)2 D3, 19-nor-1,25-dihydroxyvitamin D3, reference compound] : 3.6
C[C@@H](CCCC(C)(C)O)[C@H]1CC[C@H]2/C(=C/C=C3C[C@@H](O)C[C@H](O)C3)CCC[C@]12C [20-epi-19-nor-1,25(OH)2 D3, reference compound] : 5.7

We now examine a further compound.
Quickly give me recorded SERUM CALCIUM for C=C1/C(=C\C=C2/CCC[C@]3(C)[C@@H]([C@H](C)CCCC(C)(C)O)CC[C@@H]23)C[C@@H](O)C[C@@H]1O [1,25(OH)2 D3, 1α,25-dihydroxyvitamin D3]
5.3
